Activity values, listed per item
- system_under_test: Dectin-1b (Homo sapiens)
- Construct: host or cells: HEK-Blue Dectin-1b reporter cells (HEK293-derived)
- Sequence (Q9BXN2 1-201 isoform Q9BXN2-2): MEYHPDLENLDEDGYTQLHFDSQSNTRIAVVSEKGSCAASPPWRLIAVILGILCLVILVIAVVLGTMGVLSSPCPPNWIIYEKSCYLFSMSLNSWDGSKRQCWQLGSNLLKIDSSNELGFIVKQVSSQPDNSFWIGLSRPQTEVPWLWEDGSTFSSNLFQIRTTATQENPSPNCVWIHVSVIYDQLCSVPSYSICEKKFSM
- assay_method_text: Dectin-1 assay, HEK-Blue Dectin-1b SEAP reporter cells stimulated with beta-glucan peptide (BGP)
- Assay type: cell-based
- cond: HEK-Blue Dectin-1b cells; compounds at 1, 10 or 30 μM for 6 hours, then BGP 30 μg/mL 16-18 hours; SEAP adjusted by cell viability

# count of solved cases: 2
C#CCCC1(CCOC(=O)[C@H]2CSC(C3CSC(c4ccccc4O)=N3)N2C)N=N1 (stereo partly drawn)    <30 µM
C#CCCC1(CCNC(=O)[C@H]2CS[C@@H]([C@@H]3CSC(c4ccccc4O)=N3)N2C)N=N1    <30 µM

Task item: What Activity appears in the records for this compound with Dectin-1b (Homo sapiens)? CN1C(C2CSC(c3ccccc3O)=N2)SC[C@]1(C)C(=O)O (stereo partly drawn)
Reply: <30 µM

Reference source: patent US20250197388A1
